Catalogue of compounds with associated pEC50
target-desc: ΔF508-CFTR (Homo sapiens, UniProt P13569, DEL508-508)
Construct: host or cells: CFBE41o-, doxycycline-inducible
Sequence (P13569 with tags, fused parts or gaps DEL508-508): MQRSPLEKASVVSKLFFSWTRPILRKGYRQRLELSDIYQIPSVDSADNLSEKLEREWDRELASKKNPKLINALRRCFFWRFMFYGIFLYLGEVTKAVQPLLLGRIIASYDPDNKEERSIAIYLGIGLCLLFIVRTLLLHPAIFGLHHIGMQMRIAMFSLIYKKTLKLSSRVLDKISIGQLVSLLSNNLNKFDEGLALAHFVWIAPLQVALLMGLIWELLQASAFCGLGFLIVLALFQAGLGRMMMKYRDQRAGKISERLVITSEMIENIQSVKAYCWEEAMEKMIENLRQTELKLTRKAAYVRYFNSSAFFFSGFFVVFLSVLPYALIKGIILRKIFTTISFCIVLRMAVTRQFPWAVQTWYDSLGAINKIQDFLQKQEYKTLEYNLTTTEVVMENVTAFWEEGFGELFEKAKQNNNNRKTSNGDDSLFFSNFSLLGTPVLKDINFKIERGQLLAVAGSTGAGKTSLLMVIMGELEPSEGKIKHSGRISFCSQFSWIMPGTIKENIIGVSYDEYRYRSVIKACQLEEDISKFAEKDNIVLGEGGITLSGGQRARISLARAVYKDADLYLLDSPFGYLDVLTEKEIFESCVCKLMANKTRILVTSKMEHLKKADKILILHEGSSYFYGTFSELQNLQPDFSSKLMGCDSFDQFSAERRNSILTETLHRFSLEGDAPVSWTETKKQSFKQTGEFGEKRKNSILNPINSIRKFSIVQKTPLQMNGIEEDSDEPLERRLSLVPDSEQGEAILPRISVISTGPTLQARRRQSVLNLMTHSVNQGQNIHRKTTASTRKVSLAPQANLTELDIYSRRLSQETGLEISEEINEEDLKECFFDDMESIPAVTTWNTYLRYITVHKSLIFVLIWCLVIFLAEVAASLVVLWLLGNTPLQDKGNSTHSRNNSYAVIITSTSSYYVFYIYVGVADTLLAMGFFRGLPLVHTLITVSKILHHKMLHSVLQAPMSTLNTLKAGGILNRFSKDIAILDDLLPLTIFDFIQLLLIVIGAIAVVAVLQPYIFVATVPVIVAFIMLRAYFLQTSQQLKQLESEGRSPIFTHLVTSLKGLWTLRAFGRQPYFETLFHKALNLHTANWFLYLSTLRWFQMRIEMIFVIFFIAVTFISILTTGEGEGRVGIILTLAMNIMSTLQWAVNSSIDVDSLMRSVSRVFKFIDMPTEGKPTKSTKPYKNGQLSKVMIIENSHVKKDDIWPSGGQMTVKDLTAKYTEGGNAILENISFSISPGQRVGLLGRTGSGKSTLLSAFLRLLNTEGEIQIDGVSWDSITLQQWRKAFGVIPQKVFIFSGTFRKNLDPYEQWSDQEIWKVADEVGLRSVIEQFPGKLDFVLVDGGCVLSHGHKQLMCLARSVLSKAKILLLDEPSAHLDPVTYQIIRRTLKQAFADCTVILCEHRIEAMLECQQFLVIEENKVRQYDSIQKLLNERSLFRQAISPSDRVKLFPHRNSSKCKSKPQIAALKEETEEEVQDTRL
measurement-description: CFTR cell surface levels using HRP-tagged ΔF508-CFTR expressing CFBE cells, in the presence of a co-corrector
Format: cell-based
reported-conditions: HRP-tagged ΔF508-CFTR CFBE cells, in the presence of 3 μM co-corrector; read-out: EC50
The quantity pEC50 is defined as the negative base-10 logarithm of the molar concentration.

A selection of reference data follows.
O=C(c1cc(N2CCC(CN3CCCC3)CC2)c2c(C3CCC3)nn(-c3ccccc3)c2n1)N1CCCS1(=O)=O [Compound 661]: 6.87
COC(=O)N1CCN(C2CCN(c3cc(C(=O)NS(=O)(=O)N(C)C)nc4c3c(C3CCC3)nn4-c3ccc(F)cc3)CC2)CC1 [Compound 492]: 7.36
CC(C)c1nn(-c2cccc(N3CCOCC3)c2)c2nc(C(=O)NS(C)(=O)=O)cc(-c3ccc(N(C)C4CCOCC4)nc3)c12 [Compound 87]: 6.34
COC1CN(c2cccc(-n3nc(C(C)C)c4c(-c5ccc(N6CCOCC6)cc5)cc(C(=O)NS(C)(=O)=O)nc43)c2)C1 [Compound 36]: 6.61
COC1CCN(c2cc(C(=O)NS(C)(=O)=O)nc3c2c(C(C)C)nn3C2CCCCC2)CC1 [Compound 150]: 6.50
CC(C)Oc1nn(C2CCCCC2)c2nc(C(=O)NS(=O)(=O)N(C)C)cc(-c3ccc(CN4CCOCC4)cc3)c12 [Compound 406]: 6.74

As a next step, examine the compound that follows.
For CC(C)c1nn(-c2cccc(N(C)C)c2)c2nc(C(=O)NS(C)(=O)=O)cc(-c3cnc(N(C)C)nc3)c12 [Compound 77] , what is its reported pEC50?
6.08
